- Test target: Neuropilin-1 (Rattus norvegicus)
- Assay text: Inhibition of (bt)-VEGF165 binding to purified recombinant rat NRP1/Fc chimera measured after overnight incubation by ELISA method
Positions of bridges follow the written chain, without caps; N, C: chain ends. Residues, ends and D or L forms follow the SMILES beside them.
Value kind: IC50

INPUT: Given the entry N=C(N)NCCC[C@H](NC(=O)[C@@H]1CCC(=O)NCCCC[C@H](N)C(=O)N2CCC[C@H]2C(=O)N1)C(=O)O (H-KPER-OH; lactam 1-3) , report its measured IC50.
OUTPUT: 0.18 µM
